Molecular target: Solute carrier family 2, facilitated glucose transporter member 1 (Homo sapiens)
Assay: ST_JUDE_LEISH: Cytotoxicity at 2uM final concentration against transgenic Leishmania Mexicana promastigotes LmGLUT1 that are glucose transport deficient and complemented with the human glucose transporter GLUT1. Activity is measured by DNA content using SYBR green in vitro
Type: functional
inhibition overview
Give your result in % as a bare value.

# annotated cases, reported inhibition shown
COc1ccc(-c2ccc(CNC(=O)c3ccc(Cl)cc3)c(F)c2)cc1CN1CCCN(C)CC1 : 3.27
CCCN(Cc1nnc(-c2cccs2)o1)C(=O)CSc1nnnn1-c1ccc(C)c(C)c1 : 12.1
CCOc1ccc2[nH]c(C)cc(=NN=Cc3ccncc3)c2c1 : 0.75
NC12CC3CC(CC(C3)C1)C2 : 5.47
CC(C)n1c(CC2CCN(CC3CCN(C(=O)/C=C/c4ccc(Cl)c(Cl)c4)CC3)CC2)nc2ccccc21 : -1.74

Dear colleague, I am looking for the recorded inhibition of the following compound: COCCCC1C(=O)OC2CCCC21 (stereo not drawn)
0.19

I would be grateful if you could share the reported inhibition for `CN(C)CCOc1ccc(/C(=C(/CCCn2ccnc2)c2ccccc2)c2ccc(O)cc2)cc1` .
4.25

What measured inhibition goes with `C#CC[C@@H](NC(N)=O)C(=O)O` ?
-0.51

Please report the recorded inhibition for `O=C(Nc1cccc(-c2nn3ccccc3c2-c2ccnc(Nc3cccc(F)c3)n2)c1)c1c(F)ccc(F)c1F` .
6.01

inhibition lookup needed for Cc1cccc2nc(-c3ccc(-c4cccc(CNCC5CCCO5)c4)cc3)[nH]c12 (stereo not drawn) , thanks.
12.7

Recorded inhibition for `C[C@@H]([C@@H](CCCCc1ccccc1)C(=O)N[C@H](C(=O)Nc1cccnc1)C(C)(C)C)N(O)C=O` , please?
0.14

I am curious: what inhibition value has been reported for CC(=O)N(Cc1ccc(CC(C)NCCc2cccc(Cl)c2)cc1)Cc1ccc(CC(C)NCCc2cccc(Cl)c2)cc1 (stereo not drawn) ?
83.6

So what's the measured inhibition for this one? CC1Cc2ccccc2N1CC(=O)Nc1cc(C(F)(F)F)ccc1-n1cncn1 (stereo not drawn)
1.94

Which inhibition reading was recorded for the compound `Cc1ccc(-c2nnc3c4ccccc4c(C)nn23)cc1S(=O)(=O)N1CCN(CCO)CC1` ?
0.38

Which inhibition is listed for `CCCNCCc1ccc(NS(=O)(=O)c2cccc(-c3ccc(Cl)cc3)c2)cc1` ?
1.93

Please report the recorded inhibition for `C#CCNCc1ccc(-c2cccc(-c3nc4cccc(C)c4[nH]3)c2)cc1` .
6.77

Give its inhibition value. Item: `O=C(NC1CCN(Cc2ccccc2)CC1)c1cc(-c2cccnc2)nc2ccc(Cl)cc12`
8.75

Can you look up the measured inhibition of `Cc1nc2nc(N)nc(N)c2c(C)c1Cc1ccc(C(F)(F)F)cc1` for me?
32.9
